# PROCEDURE DETAILS: xn = mol fraction of the nth substance listed
# TEST CONDITIONS: 318.15 K; 103 kPa; x1 = 0.65
MEASURED PROPERTY: viscosity (mPa·s)
Enter your answer as a number in mPa·s; do not include the unit.

Give the reported value of viscosity for this record: C[Si]1(C)O[Si](C)(C)O[Si](C)(C)O[Si](C)(C)O1 + CCCCCCCCCCCCCC
1.285

Give the reported value of viscosity for this record: C[Si]1(C)O[Si](C)(C)O[Si](C)(C)O[Si](C)(C)O1 + CCCCCCCCCC
0.987

Give the reported value of viscosity for this record: C[Si]1(C)O[Si](C)(C)O[Si](C)(C)O[Si](C)(C)O1 + CCCCCCCCCCCC
1.142

Give the reported value of viscosity for this record: C[Si]1(C)O[Si](C)(C)O[Si](C)(C)O[Si](C)(C)O1 + CCCCCCCCCCCCC
1.209

These measurements were taken from the CheMixHub viscosity set.
